A collection of binders and their measured Ibalizumab ELISA binning signal
- tgt: T1, huCD4-HIS (human, UniProt P01730 26-390, limits assumed)
- T1 construct: the ELISA binning is not described in the text of this stretch
- protocol notes: ELISA binning, competitor Ibalizumab; 100 ng/mL huCD4-HIS, anti-HIS HRP detection; background 45, max binding 3000000

binder | Ibalizumab ELISA binning signal
75110_12C19A (antibody, IgG1, V domains shown, Tested as non-clonal AlivaMab Mouse Kappa hybridoma supernatant: human variable domains and human kappa, mouse Fc) VH: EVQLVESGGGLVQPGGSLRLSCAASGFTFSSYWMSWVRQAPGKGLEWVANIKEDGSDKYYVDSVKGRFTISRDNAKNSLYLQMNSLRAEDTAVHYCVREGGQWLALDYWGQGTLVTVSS VL: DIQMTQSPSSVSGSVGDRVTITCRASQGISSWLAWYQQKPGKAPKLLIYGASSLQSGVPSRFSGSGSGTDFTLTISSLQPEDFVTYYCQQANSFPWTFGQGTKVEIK | 1.51e+06
75110_05K11A (antibody, IgG1, V domains shown, Tested as non-clonal AlivaMab Mouse Kappa hybridoma supernatant: human variable domains and human kappa, mouse Fc) VH: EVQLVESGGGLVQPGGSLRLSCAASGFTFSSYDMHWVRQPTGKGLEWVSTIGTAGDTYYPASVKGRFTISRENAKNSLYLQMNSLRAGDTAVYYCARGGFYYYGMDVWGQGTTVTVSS VL: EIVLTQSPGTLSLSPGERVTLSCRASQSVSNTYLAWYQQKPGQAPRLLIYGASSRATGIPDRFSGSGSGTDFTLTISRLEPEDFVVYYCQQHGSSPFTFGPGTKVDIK | 1.18e+06
75110_13P21A (antibody, IgG1, V domains shown, Tested as non-clonal AlivaMab Mouse Kappa hybridoma supernatant: human variable domains and human kappa, mouse Fc) VH: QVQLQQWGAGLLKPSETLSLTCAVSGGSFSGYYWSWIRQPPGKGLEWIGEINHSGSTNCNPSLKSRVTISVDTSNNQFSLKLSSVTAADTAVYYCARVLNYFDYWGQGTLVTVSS VL: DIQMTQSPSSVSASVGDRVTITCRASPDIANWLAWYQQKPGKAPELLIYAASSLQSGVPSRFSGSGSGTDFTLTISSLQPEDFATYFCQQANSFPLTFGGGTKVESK | 678000
75110_01D24A (antibody, V domains shown, Tested as non-clonal AlivaMab Mouse Kappa hybridoma supernatant: human variable domains and human kappa, mouse Fc) VH: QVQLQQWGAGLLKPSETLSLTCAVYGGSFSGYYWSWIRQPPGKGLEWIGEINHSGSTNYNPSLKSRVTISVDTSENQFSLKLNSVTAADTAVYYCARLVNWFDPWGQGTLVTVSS VL: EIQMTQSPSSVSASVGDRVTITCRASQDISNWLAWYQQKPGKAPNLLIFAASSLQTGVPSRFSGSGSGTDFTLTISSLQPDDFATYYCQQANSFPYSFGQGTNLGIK | 20300
